biological target: aspartic endopeptidase (Homo sapiens); assay: Activation efficiency by aspartic endopeptidase (HPLC); type: biochemical; details: 1 mg/ml compound, enzyme 1 μmol/L, pH 6.0, 37° C., 2 hours; ratio of released product to original compound
Sequence (Q99538 18-323, species assumed): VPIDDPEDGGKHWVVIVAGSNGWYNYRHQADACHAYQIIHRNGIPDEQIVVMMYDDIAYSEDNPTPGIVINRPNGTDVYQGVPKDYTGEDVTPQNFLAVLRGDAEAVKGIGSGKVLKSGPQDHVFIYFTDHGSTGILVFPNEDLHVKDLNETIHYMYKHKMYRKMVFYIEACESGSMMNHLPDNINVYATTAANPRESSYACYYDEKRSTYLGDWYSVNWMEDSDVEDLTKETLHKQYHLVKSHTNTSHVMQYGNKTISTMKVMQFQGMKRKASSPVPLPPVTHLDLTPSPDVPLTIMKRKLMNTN
measure: Activation efficiencies (%)
Report the figure in % without appending any unit label.

Solved cases below.
CC(NC(=O)C(NC(=O)[C@H](O)[C@H](O)[C@@H](O[C@@H]1O[C@H](CO)[C@H](O)[C@H](O)[C@H]1O)[C@H](O)CO)C(C)O)C(=O)NC(CC(N)=O)C(=O)Nc1ccc(COC(=O)N(C)CCNC(=O)c2cc(Oc3ccc(NC(=O)Nc4ccc(Cl)c(C(F)(F)F)c4)c(F)c3)ccn2)cc1 (some centres unmarked) : 99.5
CC(NC(=O)C(NC(=O)[C@H](O)[C@H](O)[C@@H](O[C@@H]1O[C@H](CO)[C@H](O)[C@H](O)[C@H]1O)[C@H](O)CO)C(C)O)C(=O)NC(CC(N)=O)C(=O)Nc1ccc(COC(=O)N(C)CCNC(=O)c2cc(Oc3ccc(NC(=O)Nc4ccc(Cl)c(C(F)(F)F)c4)cc3)ccn2)cc1 (some centres unmarked) : 98.6
CC(NC(=O)C(C)NC(=O)[C@H](O)[C@H](O)[C@@H](O[C@@H]1O[C@H](CO)[C@H](O)[C@H](O)[C@H]1O)[C@H](O)CO)C(=O)NC(CC(N)=O)C(=O)Nc1ccc(COC(=O)N(C)CCNC(=O)c2cc(Oc3ccc(NC(=O)Nc4ccc(Cl)c(C(F)(F)F)c4)cc3)ccn2)cc1 (some centres unmarked) : 86.7
CC(NC(=O)C(C)NC(=O)[C@H](O)[C@H](O)[C@@H](O[C@@H]1O[C@H](CO)[C@H](O)[C@H](O)[C@H]1O)[C@H](O)CO)C(=O)NC(CC(N)=O)C(=O)Nc1ccc(COC(=O)N(C)CCNC(=O)c2cc(Oc3ccc(NC(=O)Nc4ccc(Cl)c(C(F)(F)F)c4)c(F)c3)ccn2)cc1 (some centres unmarked) : 88.4
CC(NC(=O)C(NC(=O)[C@H](O)[C@H](O)[C@@H](O[C@@H]1O[C@H](CO)[C@H](O)[C@H](O)[C@H]1O)[C@H](O)CO)C(C)C)C(=O)NC(CC(N)=O)C(=O)Nc1ccc(COC(=O)N(C)CCNC(=O)c2cc(Oc3ccc(NC(=O)Nc4ccc(Cl)c(C(F)(F)F)c4)c(F)c3)ccn2)cc1 (some centres unmarked) : 93.7
C[C@H](N=C[C@H](O)[C@@H](O)[C@H](O)[C@H](O)CO)C(=O)N[C@@H](C)C(=O)N[C@@H](CC(N)=O)C(=O)Nc1ccc(COC(=O)N(C)CCNC(=O)c2cc(Oc3ccc(NC(=O)Nc4ccc(Cl)c(C(F)(F)F)c4)cc3)ccn2)cc1 [Compound C4, Glucose-AAN-PABC-Compound a, reference compound] : 46.7
COc1cccc2c1C(=O)c1c(O)c3c(c(O)c1C2=O)C[C@](O)(C(=O)CO)CC3OC1C[C@H](NC(=O)OCc2ccc(NC(=O)C(CC(N)=O)NC(=O)C(C)NC(=O)C(C)NC(=O)[C@H](O)[C@H](O)[C@@H](O[C@@H]3O[C@H](CO)[C@H](O)[C@H](O)[C@H]3O)[C@H](O)CO)cc2)[C@H](O)[C@H](C)O1 (some centres unmarked) : 82.6

Q: I have this compound here, CC(NC(=O)C(NC(=O)[C@H](O)[C@H](O)[C@@H](O[C@@H]1O[C@H](CO)[C@H](O)[C@H](O)[C@H]1O)[C@H](O)CO)C(C)C)C(=O)NC(CC(N)=O)C(=O)Nc1ccc(COC(=O)N(C)CCNC(=O)c2cc(Oc3ccc(NC(=O)Nc4ccc(Cl)c(C(F)(F)F)c4)cc3)ccn2)cc1 (some centres unmarked) , and I need its recorded Activation efficiencies (%).
Ans: 90.5
